Biological target: human PD-L1 on cell surface (human, UniProt Q9NZQ7 19-290)
Sequence (Q9NZQ7 19-290): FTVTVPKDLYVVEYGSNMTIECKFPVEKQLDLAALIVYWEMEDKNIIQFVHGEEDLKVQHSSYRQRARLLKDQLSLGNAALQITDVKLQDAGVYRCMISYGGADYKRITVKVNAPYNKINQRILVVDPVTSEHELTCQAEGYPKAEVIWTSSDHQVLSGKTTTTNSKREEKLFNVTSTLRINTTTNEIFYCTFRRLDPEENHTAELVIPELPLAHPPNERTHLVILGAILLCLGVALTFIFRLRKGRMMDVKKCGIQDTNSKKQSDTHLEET
Assay: cell-based or functional assay
Below: a set of entries, each annotated with reported Bottom (best-fit value) of IL-2 release, mixed lymphocyte reaction.
Number, no unit, nothing else.

The cases that follow already have their Bottom (best-fit value) of IL-2 release, mixed lymphocyte reaction on record.
BINDER: AH01963 (antibody, human IgG1, V domains shown, also called mPD-L1Ab-CBM clone AH01963) VH: QVQLQESGPGLVKPSQTLSLTCTVSGYSITSGYTWHWIRQHPGKGLEWIGYIHYSGSTKYNPSLKSRVTISRDTSKNQFSLKLSSVTAADTAVYYCARNSLFASWGQGTLVTVSS VL: DIVLTQSPDSLAVSLGERATINCRASESVDTYGDSFMHWYQQKPGQPPKLLIYRASNLESGVPDRFSGSGSGTDFTLTISSVQAEDVAVYYCQQSNEAPYTFGGGTKLEIK
NUMBER: 1420
--
BINDER: AH01946 (antibody, human IgG1, V domains shown, also called mPD-L1Ab-CBM clone AH01946) VH: QVQLQESGPGLVKPSQTLSLTCTVSGYSITSGYTWHWIRQHPGKGLEWIGYIHYSGSTKYNPSLKSRVTISRDTSKNQFSLKLSSMTAADTAVYYCARNSLFASWGQGTLVTVSS VL: DIVLTQSPDSLAVSLGERATINCRASESVDTYGDSFMHWFQQKPGQPPKLLIYRASNLESGVPDRFSGSGSGTDFTLTISSVQAEDVAVYYCQQSNEAPYTFGGGTKLEIK
NUMBER: 1170
--
BINDER: AH01950 (antibody, human IgG1, V domains shown, also called mPD-L1Ab-CBM clone AH01950) VH: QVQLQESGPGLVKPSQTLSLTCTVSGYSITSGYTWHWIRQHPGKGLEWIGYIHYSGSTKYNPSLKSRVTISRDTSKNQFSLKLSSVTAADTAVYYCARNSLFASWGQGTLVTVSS VL: DIVLTQSPDSLAVSLGERATINCRASESVDTYGDSFMHWFQQKPGQPPKLLIYRASNLESGVPDRFSGSGSGTDFTLTISSLQAEDVAVYYCQQSNEAPYTFGGGTKLEIK
NUMBER: 1140

Prompt: Consider the binder shown here: AH02029 (antibody, human IgG1, V domains shown, also called mPD-L1Ab-5BM clone AH02029) VH: QVQLQESGPGLVKPSQTLSLTCTVTGYSITSGYTWHWIRQHPGKGLEWIGYIHYSGSTKYNPSLKSRVSISRDTSKNQFSLKLSSVTAADTAVYYCARNSLFASWGQGTLVTVSS VL: DIVLTQSPDSLAVSLGERATINCRASESVDTYGDSFMHWYQQKPGQPPKLLIYRASNLESGVPDRFSGSGSGTDFTLTISSLQAEDVAVYYCQQSNEAPYTFGGGTKLEIK What is its recorded Bottom (best-fit value) of IL-2 release, mixed lymphocyte reaction?
Completion: 1350
